- assay_system: mTORC1 (Homo sapiens) (UniProt P42345+Q8N122+Q9BVC4)
- Sequence (Q8N122 whole entry, looked up, other chains not shown): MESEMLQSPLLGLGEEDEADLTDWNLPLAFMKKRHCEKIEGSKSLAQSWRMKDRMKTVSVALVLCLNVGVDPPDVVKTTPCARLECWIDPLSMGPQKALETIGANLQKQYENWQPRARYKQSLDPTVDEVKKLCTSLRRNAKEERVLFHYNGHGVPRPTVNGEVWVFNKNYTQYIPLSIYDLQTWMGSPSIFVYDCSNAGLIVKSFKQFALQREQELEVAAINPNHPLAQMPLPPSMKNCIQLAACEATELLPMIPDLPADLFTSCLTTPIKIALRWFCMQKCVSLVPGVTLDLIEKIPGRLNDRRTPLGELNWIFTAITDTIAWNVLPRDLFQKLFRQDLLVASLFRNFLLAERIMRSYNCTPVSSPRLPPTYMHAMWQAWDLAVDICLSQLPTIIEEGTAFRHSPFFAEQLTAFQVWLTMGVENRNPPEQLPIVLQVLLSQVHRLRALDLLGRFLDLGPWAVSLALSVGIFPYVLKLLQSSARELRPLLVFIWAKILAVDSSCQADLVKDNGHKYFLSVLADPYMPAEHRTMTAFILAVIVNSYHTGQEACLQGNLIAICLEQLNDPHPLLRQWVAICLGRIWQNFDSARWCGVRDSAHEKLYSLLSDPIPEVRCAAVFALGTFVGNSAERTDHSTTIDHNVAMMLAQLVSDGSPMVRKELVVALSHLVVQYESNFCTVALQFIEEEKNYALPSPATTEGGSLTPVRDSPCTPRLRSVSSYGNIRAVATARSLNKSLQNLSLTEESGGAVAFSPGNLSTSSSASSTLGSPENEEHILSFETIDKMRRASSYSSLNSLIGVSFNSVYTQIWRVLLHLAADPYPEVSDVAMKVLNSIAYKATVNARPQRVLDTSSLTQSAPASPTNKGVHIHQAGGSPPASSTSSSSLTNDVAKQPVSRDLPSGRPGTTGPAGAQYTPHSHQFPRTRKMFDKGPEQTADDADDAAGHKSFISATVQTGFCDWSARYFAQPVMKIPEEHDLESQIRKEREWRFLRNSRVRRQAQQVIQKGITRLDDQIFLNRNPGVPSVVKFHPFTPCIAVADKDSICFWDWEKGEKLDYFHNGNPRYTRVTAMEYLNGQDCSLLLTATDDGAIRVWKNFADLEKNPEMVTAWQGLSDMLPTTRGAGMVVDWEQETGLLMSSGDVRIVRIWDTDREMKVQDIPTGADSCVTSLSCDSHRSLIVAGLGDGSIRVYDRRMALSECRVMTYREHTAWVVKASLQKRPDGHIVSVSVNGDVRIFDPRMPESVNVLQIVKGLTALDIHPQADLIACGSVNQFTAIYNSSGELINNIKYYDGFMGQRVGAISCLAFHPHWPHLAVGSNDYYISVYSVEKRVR
- Sequence (Q9BVC4 whole entry, looked up, other chains not shown): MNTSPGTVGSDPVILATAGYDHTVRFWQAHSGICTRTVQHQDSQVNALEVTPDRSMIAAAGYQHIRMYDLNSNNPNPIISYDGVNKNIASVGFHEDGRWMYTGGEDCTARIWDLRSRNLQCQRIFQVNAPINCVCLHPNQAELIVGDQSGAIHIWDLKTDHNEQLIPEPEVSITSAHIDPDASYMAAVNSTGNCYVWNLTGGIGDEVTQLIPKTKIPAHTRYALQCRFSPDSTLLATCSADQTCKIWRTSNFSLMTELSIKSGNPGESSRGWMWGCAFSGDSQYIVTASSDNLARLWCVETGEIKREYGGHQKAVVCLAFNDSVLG
- assay_info: Inhibition of mTORC1 in human RD cells assessed as reduction in P70S6K1 phosphorylation at Thr 389 site at 20 uM incubated for 2 hrs in presence of insulin by Western blot analysis
- Assay type: cell-based
Calls of active or inactive are those of the source. The rule behind the calls is not given here.
Lab note: assign the record to one of active, inactive

For this compound, state the assay outcome: `CCCC(=O)Nc1ccc(-c2ccc3ncc4ccc(=O)n(-c5cccc(C(F)(F)F)c5)c4c3c2)cn1`
active

Queued: `NC(=O)NC/C=C/c1ccc2ncc3oc(=O)n(-c4cccc(C(F)(F)F)c4)c3c2c1`
inactive

What do we get for `O=C1Cc2cc(-c3ccc4ncc5ccc(=O)n(-c6cccc(C(F)(F)F)c6)c5c4c3)ccc2N1` ?
active

Please answer likewise for `Nc1cccc(Nc2ccc3ncc4ccc(=O)n(-c5cccc(C(F)(F)F)c5)c4c3c2)c1`
active

Field entry: `CN1CCN(c2ccc(-c3ccc4ncc5ccc(=O)n(-c6cccc(C(F)(F)F)c6)c5c4c3)cn2)CC1`
active

Subsequent entry: `O=C(Nc1ccc(-c2ccc3ncc4ccc(=O)n(-c5cccc(C(F)(F)F)c5)c4c3c2)cn1)Oc1ccccc1`
active

Another compound to look at: `O=C(Nc1ccc(-c2ccc3ncc4ccc(=O)n(-c5cccc(C(F)(F)F)c5)c4c3c2)cn1)OCc1ccccc1`
active

Also need `O=c1ccc2cnc3ccc(-c4ccc(N5CCCC5)nc4)cc3c2n1-c1cccc(C(F)(F)F)c1` , thanks.
active
